Reported values of Selectivity ratio for individual entries
Species: Ovis aries
experiment notes: Selectivity ratio of ovine COX1 to ovine COX2 at 20 uM

Guide cases for Selectivity ratio, answers given:
                                   molecule  experimental_endpoint  assay_result
0  COc1ccc(N2C(=O)c3ccccc3NC2c2ccc(S(C)(=O)=O)cc2)cc1 (centres undefined)      Selectivity ratio         0.577
1  CS(=O)(=O)c1ccc(C2Nc3ccccc3C(=O)N2c2ccc(Cl)cc2)cc1 (centres undefined)      Selectivity ratio       > 0.001
2  Cc1ccc(N2C(=O)c3ccccc3NC2c2ccc(S(C)(=O)=O)cc2)cc1 (centres undefined)      Selectivity ratio        > 0.01

Task: Determine its reported Selectivity ratio: CS(=O)(=O)c1ccc(C2Nc3ccccc3C(=O)N2c2ccc(F)cc2)cc1 (centres undefined)
Result: > 0.001
